Numbers sourced from ChEMBL document CHEMBL3988442.

biological target: Tyrosyl-tRNA synthetase, putative (Trypanosoma cruzi (strain CL Brener)); assay: Trypanosoma cruzi tyrosyl tRNA synthetase (TcYRS) _High Tyrosine SOP; format: functional; design: scale not given: in the data most compounds retested in dose-response had high values; conditions: 30 µM
Documented Percent Effect across a set of compounds
measurementType: Percent Effect (%)

[[record]]
compound = "Cc1cnn(CC2CCCN2CC(=O)N(C)CCC#N)c1 (configuration not stated)"
observed = -2.65

[[record]]
compound = "Cc1cnc(CN(C)C2CCN(Cc3nc4ccccc4n3C)C2)o1 (configuration not stated)"
observed = 14.2

[[record]]
compound = "COCCNC(=O)CN1CCN(c2nc(C)cs2)C(C)C1 (configuration not stated)"
observed = 2.97

[[record]]
compound = "Cc1csc2c(=O)n3c(nc12)CCN(C(=O)c1cccnc1)CC3"
observed = 4.3

[[record]]
compound = "CCCNCc1cn(C)nc1-c1cccnc1"
observed = 0

[[record]]
compound = "CNc1cc2c(nn1)CCN(C(=O)C1CCCc3ccccc31)C2 (configuration not stated)"
observed = 5.42

[[record]]
compound = "Cn1cnc2c1CCN(Cc1cccc(OCC(N)=O)c1)C2"
observed = 3.35

[[record]]
compound = "O=C(CCCNC(=O)C1CC1)Nc1cnn(-c2ccccc2Cl)c1"
observed = 5.94

[[record]]
compound = "Cc1ccc(CNCC2CCc3nnc(C(C)C)n3C2)s1 (configuration not stated)"
observed = 1.05

[[record]]
compound = "Cc1ccccc1C(=O)N1CCC(n2nnc3cc(F)ccc32)CC1"
observed = 4.25

[[record]]
compound = "O=C1C(NCc2nnc3n2CCCC3)CCN1c1ccccc1 (configuration not stated)"
observed = 3.35

[[record]]
compound = "CC(=O)N1CCC(C(=O)NCCN2CCCCC2)CC1"
observed = 4.21

